- Test system: HL-60(TB) leukemia
- Experiment: NCI-60 one-dose screen, 48 h (100 = growth as untreated, 0 = no growth, -100 = all killed)
- Experimental parameters: 10 µM unless noted
This is part of a sample that, as a whole, favours compounds with a hit. Of some 83,000 tested, about 20% had one in any assay.
Measurement label: growth (%)
Provide only the numeric value, understood in %.

Item under review: `CCCc1[nH]c(-c2cc(N)ccc2Cl)c2c1C(=O)CCCC2` . Reported growth?
92.4

Item under review: `COc1ccc(NC2=C(Cl)C(=O)c3nc(C)ccc3C2=O)cc1OC` . Reported growth?
9.95

Item under review: `O=C(CSc1nc2ccccc2c(=O)n1-c1ccccc1)Nc1ccc(-c2nc3ccc([N+](=O)[O-])cc3[nH]2)cc1` . Reported growth?
89.3

----------
- Tested on: CCRF-CEM leukemia
- Experiment: NCI-60 one-dose screen, 48 h (100 = growth as untreated, 0 = no growth, -100 = all killed)
- Experimental parameters: 10 µM
The panel holds about 83,000 compounds, 20% with a hit somewhere; the sample as a whole holds those more often.
Can you tell me growth for the items I'm about to list?
Provide only the numeric value, understood in %.

Item under review: `N#Cc1c(-n2c(Br)c(Br)c3cc(Br)ccc32)[nH]c2c(Br)cc(Br)cc12` . Reported growth?
13.2

Item under review: `CN(CCF)/N=N/c1nc[nH]c1C(N)=O` . Reported growth?
20.8

Item under review: `COC(=O)[C@H]1[C@@H](O)[C@@]2(O)c3c(OC)cc(OC)cc3O[C@@]2(c2ccc(OC)cc2)[C@@H]1c1ccccc1` . Reported growth?
4.76

Item under review: `Cc1ccc(CNc2nc3ccc(OC/C(=C/F)CN)cc3o2)cn1` . Reported growth?
105

Item under review: COC1[C@@H]2C[C@H]3C(C)(C)O[C@@](C/C=C(/C)C(=O)O)(C2=O)[C@]32Oc3c(CC=C(C)C)c4c(c(O)c3C(=O)[C@H]12)C=CC(C)(C)O4 (stereo partly drawn) . Reported growth?
-1.89

Item under review: NC1CCc2cc(O)c(O)cc2C1 (stereo not drawn) . Reported growth?
48

Item under review: `CC1=C2C(=O)[C@](C)(CO)C=C2C(=O)[C@](C)(O)C12CC2` . Reported growth?
13.9

Item under review: `CC1=C2C(=C[C@@](C)(COC(=O)c3ccc(S(=O)(=O)F)cc3)[C@@H]2O)C(=O)[C@](C)(O)C12CC2` . Reported growth?
9.59

Item under review: CC(=O)O[C@@H]1[C@@H]2O[C@H]2[C@@](C)(O)C(=O)[C@@H](C)C/C=C/[C@H]2[C@@H]3O[C@]3(C)[C@@H](C)C3[C@H](Cc4ccccc4)NC(=O)[C@@]312 (stereo partly drawn) . Reported growth?
44.2

Item under review: `COc1cccc2c1cc([N+](=O)[O-])c1c(C(=O)O)cc3c(c12)OCO3` . Reported growth?
96.6

Item under review: `C[C@@H]1CCC/C=C/[C@H]2C[C@@H](O)C[C@@H]2[C@@H](O)/C=C/C(=O)O1` . Reported growth?
12.3

Item under review: `CC1=C[C@H]2O[C@@H]3C[C@H]4OC(=O)/C=C\C=C\[C@H]([C@@H](C)O)OCC/C(C)=C/C(=O)OC[C@@]2(CC1)[C@]4(C)[C@]31CO1` . Reported growth?
-11.5

Item under review: `CC(C)=CCc1c2c(c(O)c3c1O[C@]14C(=C[C@@H]5C[C@H]1C(C)(C)O[C@@]4(C/C=C(/C)C(=O)O)C5=O)C3=O)C=CC(C)(C)O2` . Reported growth?
-1.96

Data provenance: PubChem BioAssay (NCI)
